Target: T1, B3GNT2 (Homo sapiens, UniProt Q9NY97)
T1 construct: The respective ORFs of candidate genes [CD274 (NM_014143), MCL1 (NM_021960), JUNB (NM_002229), and B3GNT2 (NM_006577)] were synthesized; expressed in transfected cells; host or cells: A375 melanoma cells (lentiviral ORF overexpression)
T1 sequence (Q9NY97 1-397): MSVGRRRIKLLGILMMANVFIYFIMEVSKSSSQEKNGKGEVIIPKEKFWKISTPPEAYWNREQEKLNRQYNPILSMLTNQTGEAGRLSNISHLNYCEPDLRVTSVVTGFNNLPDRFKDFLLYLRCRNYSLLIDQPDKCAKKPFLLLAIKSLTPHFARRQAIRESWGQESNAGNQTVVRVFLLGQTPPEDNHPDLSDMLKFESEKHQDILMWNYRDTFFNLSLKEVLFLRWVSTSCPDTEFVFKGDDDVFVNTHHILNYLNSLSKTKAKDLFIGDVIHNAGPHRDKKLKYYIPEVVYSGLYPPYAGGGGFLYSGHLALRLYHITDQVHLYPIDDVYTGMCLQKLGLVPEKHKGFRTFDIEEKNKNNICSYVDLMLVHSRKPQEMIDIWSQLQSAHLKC
Assay: Co-IP of FLAG-tagged B3GNT2 followed by mass spectrometry
Type: cell-based
Conditions: Co-IP followed by mass spectrometry of B3GNT2; N-term tag, FLAG pull-down
Quick reference: N-term FLAG of the listed items.
Just the number.

Request: So what does the record say about N-term FLAG for C1orf68 (protein) MCDQQKQPQFPPSCVKGSGLGAGQGSNGASVKCPVPCQTQTVCVTGPAPCPTQTYVKYQVPCQTQTYVKCPAPCQRTYVKYPTPCQTYVKCPAPCQTTYVKCPTPCQTYVKCPAPCQMTYIKSPAPCQTQTCYVQGASPCQSYYVQAPASGSTSQYCVTDPCSAPCSTSYCCLAPRTFGVSPLRRWIQRPQNCNTGSSGCCENSGSSGCCGSGGCGCSCGCGSSGCCCLGIIPMRSRGPACCDHEDDCCC ?
Result: 13
